Numbers sourced from patent US20080051418A1.

Tested on: KKA^y mice
Assay: Blood glucose and blood lipid (triglyceride) lowering action in mice
Assay type: in vivo
Settings: Mus musculus, po, 96 h, 0.005% in powder diet, 4 days, lowering rate of plasma triglyceride, non-administration group = 100%, read-out: hypolipidemic action (%)
From the text: The test compound was mixed with a powder diet (CE-2, CLEA JAPAN, INC.) at a proportion of 0.005% (0.01% for the compound of Example 105) and freely given to KKA^y mice (9 to 12-week-old, 5 mice per group) which are obesity-insulin independent diabetes mellitus (type-2 diabetes) models, for 4 days. During this period, water was freely given. The blood was drawn from the orbital venous plexus. […]
Counter-ions that a name gives are not always drawn.
inhibition in vivo at 0.005 %: recorded values

Compound: Cc1cc(C(F)(F)F)ccc1Cn1nc(OC(C)C)cc1CCCOc1nn(Cc2ccccc2)cc1CC(=O)O
inhibition in vivo at 0.005 %: 55%

Compound: CCn1nc(OCCCc2ccc(OC(C)C)cc2Oc2ncc(C(F)(F)F)cc2Cl)cc1CCC(=O)O
inhibition in vivo at 0.005 %: 41%

Compound: COCOc1ccc(CCCOc2nn(C)cc2CC(=O)O)c(Oc2ncc(C(F)(F)F)cc2Cl)c1
inhibition in vivo at 0.005 %: 45%

Compound: COc1cccc(CC(=O)O)c1OCCCc1cc(OC(C)C)nn1Cc1ccc(Cl)cc1Cl
inhibition in vivo at 0.005 %: 28%

Compound: CCn1nc(OCCCc2ccc(OCCOC)cc2Oc2ncc(C(F)(F)F)cc2Cl)cc1CCC(=O)O
inhibition in vivo at 0.005 %: 51%

Compound: COc1cccc(CC(=O)O)c1OCCCc1cc(OC(C)C)nn1Cc1ccccc1C
inhibition in vivo at 0.005 %: 78%

Compound: CC(C)Oc1cc(CCCOc2nn(Cc3ccccc3)cc2CC(=O)O)n(Cc2ccc(Cl)cc2Cl)n1
inhibition in vivo at 0.005 %: 51%

Compound: CCn1nc(OCCCc2ccc(OCCOC(C)C)cc2Oc2ncc(C(F)(F)F)cc2Cl)cc1CCC(=O)O
inhibition in vivo at 0.005 %: 54%

Compound: COc1cccc(CC(=O)O)c1OCCCc1cc(OC(C)C)nn1Cc1ccccc1Cl
inhibition in vivo at 0.005 %: 90%

Compound: COc1cccc(CC(=O)O)c1OCCCc1cc(OC(C)C)nn1Cc1ccc(F)cc1F
inhibition in vivo at 0.005 %: 76%

Compound: COc1cccc(CC(=O)O)c1OCCCc1cc(OC(C)C)nn1Cc1ccc(F)cc1Cl
inhibition in vivo at 0.005 %: 71%

Compound: CC(C)Oc1cc(CCCOc2ncccc2CC(=O)O)n(Cc2ccc(Cl)cc2Cl)n1
inhibition in vivo at 0.005 %: 55%

Compound: CC(C)c1cc(CCCOc2nn(Cc3ccccc3)cc2CC(=O)O)n(Cc2ccc(C(F)(F)F)cc2Cl)n1 [Example 76, calcium salt]
inhibition in vivo at 0.005 %: 57%

----------
log10 EC50: recorded values
Target: PPARγ-RXRα heterodimer (Homo sapiens, UniProt P37231)
Sequence (P37231 whole entry): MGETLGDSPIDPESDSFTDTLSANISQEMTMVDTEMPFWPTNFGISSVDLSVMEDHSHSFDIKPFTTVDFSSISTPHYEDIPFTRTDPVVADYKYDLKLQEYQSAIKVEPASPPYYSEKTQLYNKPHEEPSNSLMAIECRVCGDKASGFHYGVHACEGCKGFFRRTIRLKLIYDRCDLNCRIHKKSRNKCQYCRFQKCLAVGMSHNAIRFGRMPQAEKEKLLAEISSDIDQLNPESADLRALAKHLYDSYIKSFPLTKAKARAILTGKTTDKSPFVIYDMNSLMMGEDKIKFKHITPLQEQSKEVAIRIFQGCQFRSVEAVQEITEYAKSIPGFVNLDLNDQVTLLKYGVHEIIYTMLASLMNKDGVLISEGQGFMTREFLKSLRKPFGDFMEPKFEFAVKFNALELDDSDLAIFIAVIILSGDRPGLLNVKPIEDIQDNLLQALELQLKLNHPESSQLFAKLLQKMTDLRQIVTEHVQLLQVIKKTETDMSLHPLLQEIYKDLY
Sequence (P19793 whole entry partner): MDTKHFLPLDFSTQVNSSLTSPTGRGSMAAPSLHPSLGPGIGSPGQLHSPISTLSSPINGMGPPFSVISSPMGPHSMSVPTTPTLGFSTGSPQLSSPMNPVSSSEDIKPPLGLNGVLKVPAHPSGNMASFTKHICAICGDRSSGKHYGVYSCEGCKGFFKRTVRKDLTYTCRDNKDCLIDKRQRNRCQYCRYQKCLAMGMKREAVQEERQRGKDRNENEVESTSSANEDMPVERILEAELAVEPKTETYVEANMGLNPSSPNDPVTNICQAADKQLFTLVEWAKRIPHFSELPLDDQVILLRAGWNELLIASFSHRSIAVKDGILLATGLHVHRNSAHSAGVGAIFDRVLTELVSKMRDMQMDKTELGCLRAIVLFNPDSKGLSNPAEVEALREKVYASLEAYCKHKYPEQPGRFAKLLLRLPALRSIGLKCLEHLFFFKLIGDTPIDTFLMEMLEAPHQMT
Assay: PPARγ-RXRα heterodimer ligand activity (luciferase reporter)
Details: PPARγ:RXRα:4ERPP/CHO-K1 cells, 18-24 hr, concentration showing 50% of the maximum induction rate
Property Name: log10 EC50 (log10 of the value in nM)

Compound: CCn1cc(CC(=O)O)c(OCCCc2cc(OC(C)C)nn2Cc2ccc(Cl)cc2Cl)n1 [Example 22]
log10 EC50: 1.18
//
Compound: Cc1cc(C(F)(F)F)ccc1Cn1nc(OC(C)C)cc1CCCOc1ncccc1CC(=O)O [Example 80]
log10 EC50: 0.73
//
Compound: CCCOc1cc(CCCOc2c(CC(=O)O)cccc2OC)n(C(C)c2ccc(Cl)cc2Cl)n1 (stereo not shown) [Example 19]
log10 EC50: 0.51
//
Compound: CC(C)Oc1ccc(CCCCOc2cc(CCC(=O)O)n(-c3ccccc3)n2)c(Oc2ncc(C(F)(F)F)cc2Cl)c1 [Example 156]
log10 EC50: 0.00
//
Compound: CC(C)Oc1cc(CCCOc2nn(Cc3ccccc3)cc2CC(=O)O)n(Cc2ccc(F)cc2Cl)n1 [Example 92]
log10 EC50: 0.71
//
Compound: CC(C)Oc1ccc(CCCOc2cc(CCC(=O)O)n(-c3ccccc3)n2)c(Oc2ncc(C(F)(F)F)cc2Cl)c1 [Example 136]
log10 EC50: -0.38
//
Compound: CCn1nc(OCCCc2ccc(OC(C)C)cc2Oc2ncc(C(F)(F)F)cc2Cl)cc1CCC(=O)O [Example 141]
log10 EC50: 0.20
//
Compound: CC(C)Oc1ccc(CCCOc2cc(CCC(=O)O)n(C)n2)c(Oc2ncc(C(F)(F)F)cc2Cl)c1 [Example 139]
log10 EC50: 0.95
//
Compound: CCCOc1cc(CCCOc2c(CC(=O)O)cccc2OC)n(Cc2ccc(F)cc2F)n1 [Example 82]
log10 EC50: 1.41
//
Compound: CC(C)Oc1ccc(CCCOc2nn(C)cc2CC(=O)O)c(Oc2ncc(Cl)cc2Cl)c1 [Example 132]
log10 EC50: 1.04
